Target: T1, cynomolgus monkey BCMA (cynomolgus monkey, UniProt A0A2K5UD97 1-53)
T1 construct: Soluble analyte in SPR; construct not described; also called cyBCMA; Cyno BCMA
T1 sequence (A0A2K5UD97 entry or part of it): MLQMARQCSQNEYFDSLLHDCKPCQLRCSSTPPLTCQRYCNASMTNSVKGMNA
Experiment: SPR, IgG immobilised, 25 C
Kd reference
Field format: number, assumed nM, no unit text.

L1.LGF/L3.KW/H3.AQ (antibody, V domains shown, IgG) VH: EVQLLESGGGLVQPGGSLRLSCAASGFTFGSYAMTWVRQAPGKGLEWVSAISGSGGNTFYADSVKGRFTISRDNSKNTLYLQMNSLRAEDTAVYYCARVSPIAAQMDYWGQGTLVTVSS VL: EIVLTQSPGTLSLSPGERATLSCRASQSLGSFYLAWYQQKPGQAPRLLIYGASSRATGIPDRFSGSGSGTDFTLTISRLEPEDFAVYYCKHYGWPPSFTFGQGTKVEIK: 6.7

Okay, next one:
Query: # Kd lookup, item L1.GDF/L3.NY/H3.AP (antibody, V domains shown, IgG) VH: EVQLLESGGGLVQPGGSLRLSCAASGFTFGSYAMTWVRQAPGKGLEWVSAISGSGGNTFYADSVKGRFTISRDNSKNTLYLQMNSLRAEDTAVYYCARVSPIAAPMDYWGQGTLVTVSS VL: EIVLTQSPGTLSLSPGERATLSCRASQSVGDFYLAWYQQKPGQAPRLLIYGASSRATGIPDRFSGSGSGTDFTLTISRLEPEDFAVYYCQHYNYPPSFTFGQGTKVEIK
Reply: 5.2
